Reference for the values: paper PMC10250219

# measured_target: OGG1-2NA (untagged) (human, UniProt O15527 1-345, N149A;N150A)
# Sequence (O15527 whole entry N149A/N150A): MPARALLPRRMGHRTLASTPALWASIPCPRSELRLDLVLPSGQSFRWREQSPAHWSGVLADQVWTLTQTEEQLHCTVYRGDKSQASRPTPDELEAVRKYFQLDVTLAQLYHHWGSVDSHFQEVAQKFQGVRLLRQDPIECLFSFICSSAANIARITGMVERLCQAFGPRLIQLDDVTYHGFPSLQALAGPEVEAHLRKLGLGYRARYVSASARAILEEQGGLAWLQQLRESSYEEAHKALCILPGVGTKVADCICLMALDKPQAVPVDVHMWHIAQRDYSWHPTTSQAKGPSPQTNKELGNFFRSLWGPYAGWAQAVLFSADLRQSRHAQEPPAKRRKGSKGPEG
# assay_protocol: EMSA
pKd: −log10 of the molar value.

>  <binder>
24-mer G:C duplex (dsDNA) DNA 1: CTGATCGATGACGCCTGACATGAT DNA 2: ATCATGTCAGGCGTCATCGATCAG

>  <pKd>
6.22

$$$$
